Test system: MS2 coat protein
protocol-text: apparent KD of MS2 coat protein; higher = weaker reporter binding
measurement-context: Eterna round: R107; input ligand: theophylline 2 mM
Outcome label depends on apparent KD of MS2 coat protein relative to 50 nM: at/above gives Fulfilled, below gives Not fulfilled.

// query I'd appreciate it if you could say whether GGGUGGUAGGCGGCCGCCACUGAUUUUUAUUUAUAGAUGACAUGAGGAUCACCCAUGUUUAUGUGCAGGACCGGGCCUGUUGUGG [aaaR] has apparent KD of MS2 coat protein at least equal to 50 nM.
// result Not fulfilled

// query Given the entry UAUCGUCAGACGGCCGCCACUAGAACAUGAGGAUCACCCAUGUAGUGGCCGGAUACCUCAAUAACUAGGACCGGGUCUGACGAAU [(Trp1)-(Ms2)-(T)'-(M)'-(Trp2)_Design17] , answer whether its apparent KD of MS2 coat protein meets or surpasses 50 nM.
// result Fulfilled

// query Please indicate if the recorded apparent KD of MS2 coat protein for GGGCGCUAUCCCGCGAGGGAUAGCGUUCAACGAGGACCGGUACGGCCGCCACUCGAACGAGUGGUGACAUGAGGAUCACCCAUGU [Iaa] meets or exceeds 50 nM.
// result Fulfilled

// query Item GGUAUGUAUUCGGAAACGAAUGCAUACCAACGAGGACCGGUACGGCCGCCACUCGGGCGGCGAUCACAUGAGGAUCACCCAUGUA [Ex Tryptophan A 2] with apparent KD of MS2 coat protein of 50 nM or above?
// result Fulfilled

// query I'd appreciate it if you could say whether UGGCAAGAGGGAAGGAGCGUCAGCAGAGUCACAUGAGGAUCACCCAUGUAGCACGUGGUGUGACAGGUAGGUCGCCCUCUGCCGU [SS-ArgB12] has apparent KD of MS2 coat protein at least equal to 50 nM.
// result Not fulfilled

// query Could you verify whether the entry GAUAUUUGAAAACAAAUAUCAGUGGGUGAACGAGGACCGGUACGGCCGCCACUCGGACAUGAGGAUCACCCAUGUCCAUGUGAAA [AstrosExyTryA#7] shows apparent KD of MS2 coat protein of no less than 50 nM?
// result Not fulfilled

* * *

Record form. Attribute: apparent KD of MS2 coat protein. Fill in for each entry.
System: MS2 coat protein
protocol-text: apparent KD of MS2 coat protein; designed switch direction (-1 OFF switch, 1 ON switch): -1; higher = weaker reporter binding
measurement-context: input ligand: none
Reply with just the number (in nM).

Memo: CCGAAACAUGAGGAUCACCCAUGUGAGGAUAUGAGCGUCUAGUUGAGAGAUUGGACGCUCAGAAGGCACAUUGG [JR_Ex1_Sub075] (Eterna round: R97, puzzle: Exclusion 1) , reported apparent KD of MS2 coat protein: 121

Kindly note the recorded apparent KD of MS2 coat protein for CUAGCGAGUGUAGGAUAUCGGACUGUUUCAGUCUGAGAAGGACAUGAGGAUCACCCAUGUAUUGCUACGUGAGUAGCACGCUAG [JL ENG1 3.00] (Eterna round: R96, puzzle: Exclusion NG 1) , which is 19

Per the record, AUUCCUCCUGUUAGGAUAUGCAUCGGGCUUCCGCAGCAGAAGGAACAUGAGGAUCACCCAUGUCAAAUAAAAUC (Eterna round: R97, puzzle: Brourd's mod of Exclusion 4) has apparent KD of MS2 coat protein of 30.2
